Target: D(1A) dopamine receptor (Rattus norvegicus, UniProt P18901)
Sequence (P18901 whole entry): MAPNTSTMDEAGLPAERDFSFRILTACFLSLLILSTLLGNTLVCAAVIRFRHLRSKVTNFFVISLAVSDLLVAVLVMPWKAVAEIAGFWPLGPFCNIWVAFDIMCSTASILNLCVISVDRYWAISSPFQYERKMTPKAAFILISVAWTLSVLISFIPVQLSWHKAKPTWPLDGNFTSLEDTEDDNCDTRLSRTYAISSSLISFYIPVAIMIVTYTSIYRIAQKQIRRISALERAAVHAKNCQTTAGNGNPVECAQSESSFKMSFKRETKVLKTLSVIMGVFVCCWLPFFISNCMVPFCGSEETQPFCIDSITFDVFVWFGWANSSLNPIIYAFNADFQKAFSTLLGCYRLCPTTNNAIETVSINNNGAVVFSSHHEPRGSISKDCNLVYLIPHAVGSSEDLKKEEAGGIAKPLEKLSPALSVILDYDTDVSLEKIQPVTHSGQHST
Assay: Inhibitory activity against [3H]SCH-23390 binding to Dopamine receptor D1 in rat striatum
measured endpoint: IC50

Req: GET /values?readout=IC50&item= CCCN(c1ccncc1)n1ccc2ccccc21
Resp: > 20 µM

* * *

Target: Glutamate NMDA receptor
Test: Inhibitory activity against [3H]TCP binding to Phencyclidine receptor in rat cortex
measured endpoint: IC50

Req: GET /values?readout=IC50&item= CCCN(c1ccncc1)n1ccc2ccccc21 [BESIPIRDINE]
Resp: > 20 µM

* * *

Below, each of the compounds is paired with its reported IC50 value.
Target: Muscarinic acetylcholine receptor
Format: cell membranes, Membrane
Description: Inhibition of [3H]quinuclidinyl benzilate (QNB) binding from rat forebrain membranes in the presence of Zn
Provide only the numeric value, understood in µM.

Consider the worked cases shown below.
O=C(O)/C=C/C(=O)O.c1cnn(Nc2ccncc2)c1 = 247
CCCN(c1ccncc1)n1cccn1.O=C(O)/C=C/C(=O)O = 31
CC(C)N(c1ccncc1)n1ccc2ccccc21 = 0.63
CN(c1ccncc1)n1ccc2ccccc21 = 5.1
CCCN(c1[nH]cnc2ncnc1-2)n1ccc2ccccc21 = 58

Let us move to another entry and its IC50.
Req: GET /values?readout=IC50&item= CCCN(c1ccncc1)n1ncc2ccccc21.O=C(O)/C=C/C(=O)O
Resp: 4

* * *

Target: Adrenergic receptor alpha-1 (Rattus norvegicus, UniProt P15823+P23944+P43140)
Assay: Inhibitory activity against [3H]WB-4101 binding to Alpha-1 adrenergic receptor in rat whole brain membrane
Type: cell membranes
measured endpoint: IC50 (µM)
Provide only the numeric value, understood in µM.

Consider the worked cases shown below.
CN(c1ccncc1)n1ccc2ccccc21 = 1.2
c1ccc2c(c1)ccn2Nc1ccncc1 = 0.51

Req: Lookup: IC50 / Adrenergic receptor alpha-1 (Rattus norvegicus, UniProt P15823+P23944+P43140) / CCN(c1ccncc1)n1ccc2ccccc21
Resp: 3.3

Req: Lookup: IC50 / Adrenergic receptor alpha-1 (Rattus norvegicus, UniProt P15823+P23944+P43140) / CCCN(c1ccncc1)n1ccc2ccccc21 [BESIPIRDINE]
Resp: 10

Req: Lookup: IC50 / Adrenergic receptor alpha-1 (Rattus norvegicus, UniProt P15823+P23944+P43140) / CCCN(c1ccncc1)n1c2ccccc2c2ccccc21.O=C(O)/C=C/C(=O)O
Resp: 3.2

* * *

Below, each of the molecules is paired with its reported log10 of IC50 value.
Molecular target: Muscarinic acetylcholine receptor
Format: cell membranes, Membrane
Units before log transform: µM; reported quantity: IC50; transform: log10.

Consider the worked cases shown below.
CCCN(c1ccncc1)n1cc(C)c2ccccc21 = 0.65
CCCN(c1ccncc1)n1ccc2ccccc21 = -0.03
CCCN(c1ccncn1)n1ccc2ccccc21 = 1.04
CCCN(c1ccncc1)n1cc(C=O)c2ccccc21 = 0.26
COc1ccc2c(ccn2Nc2ccncc2)c1 = 0.88
Clc1ccc2c(ccn2Nc2ccncc2)c1 = 0.77

Req: GET /values?readout=log10 of IC50&item= O=C1CCCN1CC#CCN1CCCC1
Resp: -0.18

* * *

Target: Muscarinic acetylcholine receptor
Format: cell membranes, Membrane
Description: Inhibition of [3H]quinuclidinyl benzilate (QNB) binding from rat forebrain membranes in the absence of Zn
measured endpoint: IC50
State the result as a value with its unit after it.

CCCN(c1ccncc1)n1ccc2cc(Cl)ccc21 = 5.8 µM
CCCN(c1ccncc1)n1cc(C)c2ccccc21 = 19 µM
Brc1ccc2c(ccn2Nc2ccncc2)c1 = 44 µM

Req: GET /values?readout=IC50&item= CCCN(c1ccncc1)n1ncc2ccccc21.O=C(O)/C=C/C(=O)O
Resp: 13 µM

Req: GET /values?readout=IC50&item= CCCN(c1ccncc1)n1ccc2cc(Br)ccc21
Resp: 4.4 µM

Req: GET /values?readout=IC50&item= Clc1ccc2c(ccn2Nc2ccncc2)c1
Resp: 42 µM

Req: GET /values?readout=IC50&item= O=C(O)/C=C/C(=O)O.c1ccc2c(c1)c1ccccc1n2Nc1ccncc1
Resp: 20 µM

Req: GET /values?readout=IC50&item= CCCN(c1ccncc1)n1c(C)cc2ccccc21
Resp: 7.2 µM

Req: GET /values?readout=IC50&item= CCCN(c1ccncc1)n1ccc2cc(OC)ccc21
Resp: 14 µM

Req: GET /values?readout=IC50&item= O=[N+]([O-])c1ccc2c(ccn2Nc2ccncc2)c1
Resp: 146 µM

* * *

Quick record: pIC50, Sodium-dependent noradrenaline transporter (Homo sapiens, UniProt P23975).
The quantity pIC50 is defined as the negative base-10 logarithm of the molar concentration.

Req: GET /values?readout=pIC50&item= c1ccc2c(c1)ccn2Nc1ccncc1
Resp: 5.60

Req: GET /values?readout=pIC50&item= CN(c1ccncc1)n1ccc2cc(Br)ccc21
Resp: 4.89

* * *

Quick record: pIC50, Sodium-dependent noradrenaline transporter (Homo sapiens, UniProt P23975).
The quantity pIC50 is defined as the negative base-10 logarithm of the molar concentration.

Consider the worked cases shown below.
CCCN(c1ccncc1)n1ccc2cc(Br)ccc21 = 5.59
CCCN(c1ccncc1)n1cc(CC)c2ccccc21 = 5.68
CCCN(c1ccncc1)n1ccc2ccccc21 [BESIPIRDINE] = 6.37

Req: Lookup: pIC50 / Sodium-dependent noradrenaline transporter (Homo sapiens, UniProt P23975) / O=C(O)/C=C/C(=O)O.c1ccc2c(c1)c1ccccc1n2Nc1ccncc1
Resp: 5.85

Req: Lookup: pIC50 / Sodium-dependent noradrenaline transporter (Homo sapiens, UniProt P23975) / CCCN(c1[nH]cnc2ncnc1-2)n1ccc2ccccc21
Resp: 4.92

Req: Lookup: pIC50 / Sodium-dependent noradrenaline transporter (Homo sapiens, UniProt P23975) / CCCN(c1cc(Cl)ncn1)n1ccc2ccccc21
Resp: 5.59

Req: Lookup: pIC50 / Sodium-dependent noradrenaline transporter (Homo sapiens, UniProt P23975) / CCCN(c1ccncc1)n1cc(C(C)=O)c2ccccc21
Resp: 5.48

Req: Lookup: pIC50 / Sodium-dependent noradrenaline transporter (Homo sapiens, UniProt P23975) / CCCN(c1ccnc2cc(Cl)ccc12)n1ccc2ccccc21.O=C(O)/C=C/C(=O)O
Resp: 5.16

* * *

System: Mus musculus
Assay: Antagonistic activity against Scopolamine induced behavioral deficits in mice at dose 5.0 mg/kg sc
Assay type: functional
Details: route subcutaneous
measured endpoint: Response

Consider the worked cases shown below.
CCCN(c1ccncc1)n1ccc2cc(OC)ccc21 = 36%
CN(c1ccncc1)n1ccc2cc([N+](=O)[O-])ccc21 = 20%

Req: GET /values?readout=Response&item= CCCN(c1ccncc1)n1cc(C#N)c2ccccc21
Resp: 27%

Req: GET /values?readout=Response&item= CCCN(c1ccncn1)n1ccc2ccccc21
Resp: 23%

* * *

Target: Neuronal acetylcholine receptor
Assay: Inhibitory activity against [3H]-NMCC binding to nicotinic receptors in rat cortex
pIC50: −log10 of the molar value.
measured endpoint: pIC50

Req: Lookup: pIC50 / Neuronal acetylcholine receptor / CCCN(c1ccncc1)n1ccc2ccccc21
Resp: < 4.70

* * *

Species: Mus musculus
Settings: dose 2.5 mg/kg; route subcutaneous
Description: Antagonistic activity against Scopolamine induced behavioral deficits in mice at dose 2.5 mg/kg sc
measured endpoint: Response (%)
Provide only the numeric value, understood in %.

CC(C)N(c1ccncc1)n1ccc2ccccc21 = 20

Req: GET /values?readout=Response&item= C#CCN(c1ccncc1)n1ccc2ccccc21
Resp: 21

Req: GET /values?readout=Response&item= c1ccc2c(c1)OCC(C1=NCCN1)O2 (centres undefined)
Resp: 53

Req: GET /values?readout=Response&item= CCCN(c1ccncc1)n1c(C)cc2ccccc21
Resp: 20

* * *

Species on record: Mus musculus
Details: dose 5 mg/kg; route subcutaneous
measured endpoint: Response (%)
Provide only the numeric value, understood in %.

Consider the worked cases shown below.
CCCN(c1ccncc1)n1c(C)cc2ccccc21 = 23
CC(C)N(c1ccncc1)n1ccc2ccccc21 = 20
CCCN(c1ccncc1)n1ccc2cc(Br)ccc21 = 33

Req: GET /values?readout=Response&item= c1ccc2c(c1)OCC(C1=NCCN1)O2 (centres undefined)
Resp: 33

* * *

Target: UniProtKB P19327
Sequence (P19327 whole entry): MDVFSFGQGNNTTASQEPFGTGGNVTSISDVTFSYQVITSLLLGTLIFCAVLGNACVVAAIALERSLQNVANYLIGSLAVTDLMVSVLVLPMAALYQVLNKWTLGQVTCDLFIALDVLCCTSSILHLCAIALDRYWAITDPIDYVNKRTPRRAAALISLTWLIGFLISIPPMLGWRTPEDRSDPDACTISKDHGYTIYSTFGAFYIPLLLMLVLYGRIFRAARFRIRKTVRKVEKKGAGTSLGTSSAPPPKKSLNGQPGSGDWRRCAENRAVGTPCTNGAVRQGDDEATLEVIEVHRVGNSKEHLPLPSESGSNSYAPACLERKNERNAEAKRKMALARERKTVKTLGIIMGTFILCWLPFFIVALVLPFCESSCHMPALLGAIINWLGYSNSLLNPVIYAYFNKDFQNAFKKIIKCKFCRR
Experiment: Inhibitory activity against [3H]DPAT binding to 5-HT1A receptor in rat hippocampus
Format: tissue-based
measured endpoint: IC50

Req: Lookup: IC50 / UniProtKB P19327 / CCCN(c1ccncc1)n1ccc2ccccc21
Resp: < 20 µM

* * *

Molecular target: Muscarinic acetylcholine receptor
Type: cell membranes, Membrane
Below, each of the compounds is paired with its reported IC50 value.
Provide only the numeric value, understood in µM.

CCCN(c1ccncc1)n1ccc2cc(Cl)ccc21 = 2.4

Req: GET /values?readout=IC50&item= Cc1cn(Nc2ccncc2)c2ccccc12
Resp: 35

Req: GET /values?readout=IC50&item= C=CCN(c1ccncc1)n1ccc2ccccc21
Resp: 1

Req: GET /values?readout=IC50&item= CCCN(c1ccncc1)n1ccc2cc(OC)ccc21
Resp: 4.8

Req: GET /values?readout=IC50&item= CCCN(c1ccncc1)n1c2ccccc2c2ccccc21.O=C(O)/C=C/C(=O)O
Resp: 0.5

Req: GET /values?readout=IC50&item= CN(c1ccncc1)n1ccc2cc([N+](=O)[O-])ccc21
Resp: 7.6
